Test system: Chenopodium album
protocol: Farming soil treatment test
Format: in vivo
reportedConditions: 5g a.i./10a; soil surface spray prior to weed growth, 30 days
Procedure: Field soil was filled into a 1/6000 are pot followed by seeding with Digitaria ciliaris, Chenopodium album and Amaranthus retroflexus and covering with soil. Wettable powder of compounds of formula (I) shown in Table 1 prepared in compliance with the preparation examples were diluted with water to the prescribed amount of chemical and uniformly sprayed onto each soil surface layer using 10 liters of sprayed water per are prior to weed growth following seeding. […]
propertyLabel: Chenopodium album herbicidal efficacy (growth inhibition level)

Some molecules with recorded Chenopodium album herbicidal efficacy (growth inhibition level):
{"molecule": "C=C(Cl)CNc1c([N+](=O)[O-])cnn1-c1nn2c(c1Cl)CCCC2", "result": "10 (10: 100%)"}
{"molecule": "N#Cc1cnn(-c2nn3c(c2Cl)CCCC3)c1N(C/C=C\\Cl)C(=O)C(F)(F)F", "result": "10 (10: 100%)"}
{"molecule": "C=CCN(CC)c1c(C#N)cnn1-c1nn2c(c1Cl)CCCC2 [Control agent 4.75, reference compound]", "result": "5 (5: 50% to less than 60%)"}
{"molecule": "C#CCN(C(=O)C(F)(F)F)c1c(C#N)cnn1-c1nn2c(c1Cl)CCCC2 [Control agent 4.239, reference compound]", "result": "2 (2: 20% to less than 30%)"}
{"molecule": "O=[N+]([O-])c1cnn(-c2nn3c(c2Cl)CCCC3)c1NC/C=C\\Cl", "result": "10 (10: 100%)"}

Kindly state the measured Chenopodium album herbicidal efficacy (growth inhibition level) obtained for C#CCNc1c(C#N)cnn1-c1nn2c(c1Cl)CCCC2 [Control agent 4.85, 4.156, reference compound] with Chenopodium album.
4 (4: 40% to less than 50%)

Follow-up item: `C=C(Cl)CN(C(=O)C(F)(F)F)c1c(C#N)cnn1-c1nn2c(c1Cl)CCCC2`
10 (10: 100%)

Follow-up item: C=CCNc1c(C#N)cnn1-c1nn2c(c1Cl)CCCC2 [Control agent 4.59, reference compound]
5 (5: 50% to less than 60%)

Follow-up item: CC=CCN(C(=O)C(F)(F)F)c1c(C#N)cnn1-c1nn2c(c1Cl)CCCC2 (mixture of isomers)
10 (10: 100%)

Follow-up item: CC=CCNc1c(C#N)cnn1-c1nn2c(c1Cl)CCCC2 (mixture of isomers)
10 (10: 100%)
